# Tested on: MOLM14 cells
# assay.remarks: Proliferation assay, spheroid-like growth, MOLM14 (MLL-AF9 rearranged)
# Type: cell-based, human
# assay.conditions: Homo sapiens, MOLM-14, 192 h, 8 days, confluence as measure of spheroid size, read-out: spheroid assay_OneTime MOLM14 IC50
# Method: The anti-proliferative effect of menin/MLL protein/protein interaction inhibitor test compounds was assessed in human leukemia cell lines. […] In order to assess the anti-proliferative effects, 200 MOLM14 cells, or 300 KO-52 cells were seeded in 200 μl media per well in 96-well round bottom, ultra-low attachment plates (Costar, catalogue number 7007). […] Spheroid like growth was measured in real-time by live-cell imaging (IncuCyteZOOM, Essenbio, 4× objective) acquiring images at day 8. […]
# key: entry, value: IC50
value.type: IC50 (nM)

molecule	value.type	recorded.result
CC(=O)N1CC2(C1)CN([C@H]1C[C@H]([C@H](C(C)C)N3CC4(CCN(c5ncnnc5Oc5ccc(F)cc5-c5ncc(C)cc5C5CC5)C4)C3)C1)C2 (single isomer, unassigned)	IC50	140
CC(C)C(C1CC2(CCN2CC2COC2)C1)N1CC2(CCN(c3ncnnc3Oc3ccc(F)cc3-c3cncnc3C3CC3)C2)C1 (centres unmarked)	IC50	100
CC(=O)N[C@H]1[C@@H]2CN([C@H]3C[C@@H]([C@H](C(C)C)N4CC5(CCN(c6ncnnc6Oc6ccc(F)cc6-c6cnc(C)nc6C6CC6)C5)C4)C3)C[C@@H]21	IC50	4
CC(=O)Nc1nccc(N[C@H]2C[C@@H]([C@@H](C(C)C)N3CC4(CCN(c5ncnnc5Oc5ccc(F)cc5-c5cncnc5C5CC5)C4)C3)C2)c1F (single isomer, unassigned)	IC50	3.3
CC(C)[C@H]([C@H]1C[C@@H](N(C)C)C1)N1CC2(CCN(c3ncnnc3Oc3ccc(F)cc3-c3ncccc3C3CC3)C2)C1 (single isomer, unassigned)	IC50	4

###

# Test system: KO-52 cells
# assay.remarks: Proliferation assay, spheroid-like growth, KO-52 (MLL wildtype control cell line)
# Type: cell-based, human
# assay.conditions: Homo sapiens, 192 h, KO-52 control cells, 8 days, confluence as measure of spheroid size; read-out: spheroid assay_OneTime KO-52 IC50
pIC50: −log10 of the molar value.
# key: entry, value: pIC50
value.type: pIC50

compound	value.type	inequality.operator	recorded.result
COC1(C)CCN([C@H]2C[C@H]([C@H](C(C)C)N3CC4(CCN(c5ncnnc5Oc5ccc(F)cc5-c5nnccc5C5CC5)C4)C3)C2)C1 (mixture of isomers) [Compound 276]	pIC50	<	4.82
CC(C)[C@@H]([C@H]1C[C@@H](N2CCCCC2)C1)N1CC2(CCN(c3ncnnc3Oc3ccc(F)cc3-c3nnccc3C3CC3)C2)C1 (single isomer, unassigned) [Compound 250]	pIC50	=	6.03
CNC(=O)c1cnc(N[C@H]2C[C@@H](C(C(C)C)N3CC4(CCN(c5ncnnc5Oc5ccc(F)cc5-c5cncnc5C5CC5)C4)C3)C2)o1 (single isomer, unassigned) [Compound 436]	pIC50	=	5.22
CC(C)C([C@H]1C[C@@H](NCC(C)(C)O)C1)N1CC2(CCN(c3ncnnc3Oc3ccc(F)cc3-c3cncnc3C3CC3)C2)C1 (some centres unmarked) [Compound 133]	pIC50	=	5.13
CC(C)[C@@H]([C@H]1C[C@H](N2CC[C@H](C(=O)N(C)C)C2)C1)N1CC2(CCN(c3ncnnc3Oc3ccc(F)cc3-c3cnncc3C3CC3)C2)C1 (single isomer, unassigned) [Compound 117]	pIC50	<	4.82
